Each item that follows carries a reported inhibition (INH).
Experiment: Inhibition of haemozoin formation using hemin chloride assessed as beta-hematin formation at 5 to 100 uM after 48 hrs
Type: physicochemical
Please give a number only; it is taken to be in %.

MOLECULE	UNIT_LABEL	inhibition (INH)
Cl.Clc1ccc(-c2cc(Nc3ccnc4cc(Cl)ccc34)ccc2CN2CCCC2)cc1	%	97.25
Cl.Clc1ccc(-c2cc(Nc3ccnc4cc(Cl)ccc34)ccc2CN2CCCCC2)cc1	%	97.21
Cl.Clc1ccc2c(Nc3ccc(CN4CCCCC4)c(-c4ccccc4)c3)ccnc2c1	%	97.08
CCN(CC)CCCC(C)Nc1ccnc2cc(Cl)ccc12 (centres undefined) [CHLOROQUINE]	%	98.57
CCN(CC)Cc1ccc(Nc2ccnc3cc(Cl)ccc23)cc1-c1ccccc1.Cl	%	98.45

# input molecule: Cl.Clc1ccc2c(Nc3ccc(CN4CCCC4)c(-c4ccccc4)c3)ccnc2c1 ; wanted: its inhibition (INH)
98.49

# input molecule: Cl.Clc1ccc2c(Nc3ccc(CN4CCOCC4)c(-c4ccccc4)c3)ccnc2c1 ; wanted: its inhibition (INH)
98.04

# input molecule: Cl.Clc1ccc(-c2cc(Nc3ccnc4cc(Cl)ccc34)ccc2CN2CCOCC2)cc1 ; wanted: its inhibition (INH)
2.03

# input molecule: CN1CCN(Cc2ccc(Nc3ccnc4cc(Cl)ccc34)cc2-c2ccc(Cl)cc2)CC1.Cl ; wanted: its inhibition (INH)
1.61
